Below, each entry is listed alongside its reported EC50.
Molecular target: UniProtKB P28335
Sequence (P28335 whole entry, looked up): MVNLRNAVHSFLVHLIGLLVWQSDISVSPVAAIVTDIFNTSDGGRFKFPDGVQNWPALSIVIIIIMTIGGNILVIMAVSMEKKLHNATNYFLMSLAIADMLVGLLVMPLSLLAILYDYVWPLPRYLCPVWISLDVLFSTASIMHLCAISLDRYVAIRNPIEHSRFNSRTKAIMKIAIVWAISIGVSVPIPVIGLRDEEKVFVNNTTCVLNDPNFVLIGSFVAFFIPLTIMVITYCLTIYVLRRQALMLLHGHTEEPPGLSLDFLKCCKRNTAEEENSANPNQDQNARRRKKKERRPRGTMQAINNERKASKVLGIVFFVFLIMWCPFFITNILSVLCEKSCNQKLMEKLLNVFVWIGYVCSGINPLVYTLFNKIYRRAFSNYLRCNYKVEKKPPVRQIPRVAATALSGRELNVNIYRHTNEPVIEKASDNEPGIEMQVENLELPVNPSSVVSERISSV
Assay: Ca2+/Fluo-4 assay, stable h5-HT2C-HEK293 cell line;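 also: Agonist-induced intracellular Ca2+ rise read by Fluo-4 fluorescence in HEK293 cells stably expressing the human 5-HT2C receptor, each compound run in duplicate on three or more occasions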
Type: cell-based
Settings: agonist potency, n = 3-4; read-out: 5-HT2C EC50
Structures can show the parent of a compound that is named as a salt.

{"Compound": "COc1cc([C@H]2CCCNC2)c(OC2CC2)cc1C(F)(F)F [Compound 54, hydrochloride]", "EC50": "3 to 10 µM"}
{"Compound": "COc1cc([C@@H]2CCCNC2)c(OC)cc1I", "EC50": "> 50 µM"}
{"Compound": "COc1cc([C@@H]2CCCNC2)c(OC)cc1C#N", "EC50": "> 50 µM"}
{"Compound": "COc1cc([C@H]2CCCNC2)c(OC)cc1C#N", "EC50": "~10 µM"}
